The measured values listed here are drawn from PubChem BioAssay.

Each entry below carries its reported composite z-score.
- measured-on: Torsin-1A-interacting protein 2 (Homo sapiens) (UniProt Q8NFQ8)
- Sequence (Q8NFQ8 whole entry, looked up): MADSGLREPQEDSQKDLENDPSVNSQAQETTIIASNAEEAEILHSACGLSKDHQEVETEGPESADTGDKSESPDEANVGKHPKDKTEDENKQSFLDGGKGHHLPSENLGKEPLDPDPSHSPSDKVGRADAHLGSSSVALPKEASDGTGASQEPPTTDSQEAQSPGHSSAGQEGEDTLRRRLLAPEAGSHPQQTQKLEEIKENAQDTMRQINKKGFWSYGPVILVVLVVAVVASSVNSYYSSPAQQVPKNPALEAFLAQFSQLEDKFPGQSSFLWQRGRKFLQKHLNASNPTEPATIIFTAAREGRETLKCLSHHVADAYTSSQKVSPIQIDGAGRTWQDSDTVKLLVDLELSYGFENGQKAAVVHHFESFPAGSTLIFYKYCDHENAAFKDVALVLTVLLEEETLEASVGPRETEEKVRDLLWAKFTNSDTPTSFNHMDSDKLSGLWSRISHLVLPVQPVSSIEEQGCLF
- measurement-notes: LULL1 binders on small-molecule microarray, primary screen, cell lysate, human LULL1 lysate, 635/667 nm fluorescence (AID 1092);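 also: probe is lysate of COS7 cells overexpressing human LULL1; score merges per-feature 667 nm fluorescence with signal-to-noise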
- condition-notes: hLULL1 lysate binding, 635 nm fluorescence, higher = more signal
endpoint: composite z-score

compound	endpoint	result
[N-]=[N+]=NCc1ccccc1C[C@@]1(C(=O)N2CCCCC2)N=C(c2ccc(OCCCO)cc2)O[C@@H]1c1ccccc1	composite z-score	2.2
CC(C)N1CC=CC23O[C@@H]4C=CCOC(=O)[C@@H]4[C@H]2C(=O)N(CCCO)[C@@H]3C1=O (stereo partly drawn)	composite z-score	2.41
CCC[C@@H]1C[C@@]1(CCC)[C@@H](NC(=O)OCc1ccccc1)c1ccc(-c2ccccc2)cc1	composite z-score	0.543
CCCNC(=O)[C@@H]1c2ccccc2C(=O)N(C(C)C)[C@H]1c1ccc(CO)cc1	composite z-score	0.618
C=C(C)c1cc2c(c(CCCCCC)n1)[Si](C(C)C)(C(C)C)OC2	composite z-score	-1.03
NC(=O)N1C(=O)C2C(C1=O)C1C=C(CCCO)C2C(c2cccs2)N1Cc1cccc(OC(F)(F)F)c1 (stereo not drawn)	composite z-score	1.77
O=C1OCCC=C[C@H]2OC34C=CCN(Cn5nnc6ccccc65)C(=O)[C@H]3N(CCCCCCO)C(=O)[C@@H]4C12 (stereo partly drawn)	composite z-score	0.529
COC(=O)c1c(CC[C@@H](CO)NC(=O)N2CCC[C@H]2Cn2cc(Cc3ccccc3)nn2)oc(C(C)=O)c1C(=O)OC	composite z-score	3.14
C=CC[C@@]1(C(=O)N2CCOCC2)N=C(c2ccc(OCCCO)cc2)O[C@@H]1c1ccccc1CN=[N+]=[N-]	composite z-score	3.28
COc1ccc([Si](C)(C)[C@H]2[C@H](CCO)O[C@@]3(C(=O)N(Cc4cccc(N5C(=O)COc6ccccc65)c4)c4ccccc43)[C@@H]2C)cc1	composite z-score	0.795
CC(C)[Si](C#CCCCC#N)(O[C@H](c1ccccc1)c1cn([C@H](CO)Cc2ccccc2)nn1)C(C)C	composite z-score	1.25
O=C1OCC=C[C@H]2OC34C=CCN(Cc5ccccc5)C(=O)[C@H]3N(CCCCCCO)C(=O)[C@@H]4[C@@H]12 (stereo partly drawn)	composite z-score	1.76
COC(=O)[C@@]1(Cc2ccc(F)cc2)[C@H]2c3cc(C(=O)N(C)C)n(CCc4ccc(O)c(OC)c4)c3C[C@H]2CN1C(=O)c1ccccc1	composite z-score	1.01
CCCNC(=O)[C@@]1(c2ccc([N+](=O)[O-])cc2)CC(=O)N(C2CCCCC2)[C@@H]1c1ccc(CO)cc1	composite z-score	2.8
COCCOC(=O)N1C(=O)[C@@]2(c3cc(C#CCCO)ccc31)[C@H](C(=O)Nc1nc3ccccc3s1)[C@H]1C(=O)O[C@H](c3ccccc3)[C@H](c3ccccc3)N1[C@@H]2c1ccccc1OCCO	composite z-score	2.81
O=C1OCCC/C=C\[C@H]2OC34C=CCN(CCN5CCOCC5)C(=O)[C@H]3N(CCCCCCO)C(=O)[C@@H]4C12 (stereo partly drawn)	composite z-score	2.39
COC(=O)c1ccc([C@H](NC(=O)c2ccco2)[C@]2(C)C[C@H]2C2CCCCC2)cc1	composite z-score	1.45
CCOC(=O)c1ccc(NC(=O)O[C@H]2[C@H](OC(=O)Nc3ccc4c(c3)OCO4)[C@@H](OC(=O)Nc3ccc4c(c3)OCO4)[C@@H](OC)O[C@@H]2CO)cc1	composite z-score	3.27
CCCCCCc1nc(C2CC2)cc2c1[Si](C(C)C)(C(C)C)OC2	composite z-score	-0.908
C[C@]1(C(=O)NC2CC2)c2ccccc2C(=O)N(Cc2ccccc2)[C@H]1c1ccc(CO)cc1	composite z-score	-0.488
CC(C)N1C(=O)c2ccccc2[C@@H](C(=O)NC2CC2)[C@@H]1c1ccc(CO)cc1	composite z-score	0.968
COc1ccc([Si](C)(C)[C@@H]2[C@@H](CCO)O[C@]3(C(=O)N(Cc4ccc(N5CCCCC5=O)cc4)c4ccccc43)[C@H]2C)cc1	composite z-score	2.09
C=CCOC(=O)[C@H]1[C@@H]2C(=O)O[C@@H](c3ccccc3)[C@@H](c3ccccc3)N2[C@@H](c2ccc(OCCOC(=O)[C@H]3C[C@H]4C(=O)N[C@@H](CC(C)C)C(=O)N4[C@H]3c3cccc(OCCO)c3)cc2)[C@]12C(=O)Nc1ccc(I)cc12	composite z-score	2.76
COc1ccc([Si](C)(C)[C@@H]2[C@@H](CC(=O)N(CCO)Cc3ccccc3)O[C@]3(C(=O)N(Cc4cccc(N5CCOC5=O)c4)c4ccccc43)[C@H]2C)cc1	composite z-score	1.96
COc1ccc([Si](C)(C)[C@@H]2[C@@H](CC(=O)N(CCO)Cc3ccccc3)O[C@]3(C(=O)N(Cc4cccc(N5C(=O)c6cccc7cccc5c67)c4)c4ccccc43)[C@H]2C)cc1	composite z-score	0.36
COc1cc(OC)c(C(O)C2C=CC3C(=O)N(c4ccccc4)C(=O)C3N2Nc2ccccc2)cc1Br (stereo not drawn)	composite z-score	2.53
O=C1O[C@@H](c2ccccc2)[C@@H](c2ccccc2)N2[C@@H](c3ccc(OCCO)cc3)[C@]3(C(=O)Nc4ccccc43)[C@@H](C(=O)O)[C@H]12	composite z-score	3.09
CO[C@H]1O[C@H](CO)[C@@H](OC(=O)Nc2ccc3c(c2)OCO3)[C@H](OC(=O)c2cc3ccccc3[nH]2)[C@H]1OC(=O)c1cc2ccccc2[nH]1	composite z-score	-0.33

###

Each entry below carries its reported z-score.
- measurement-notes: PSAC antagonists in infected red cells, primary screen, cell-based, P. falciparum Indochina, OD700, 1 h (AID 1154)
- condition-notes: P. falciparum Indochina infected RBC osmotic lysis, higher = more signal, called active from +8 up or from −8 down

compound	z-score
C=C(/C(=C/C[C@H](OC(=O)c1ccncc1)c1ccc(CO)o1)c1cc(C(=O)OC)ccc1OC)C(C)C	3.3
O=C1C=C(c2ccccc2)C(=O)c2ccc([C@H]3Oc4ccccc4S(=O)(=O)N4CCC[C@@H]34)cc21	2.45
COC(=O)[C@@]1(Cc2ccccc2)[C@H]2c3cc(C(=O)N(C)C)n(CCc4ccc(O)c(OC)c4)c3C[C@H]2CN1C(=O)c1ccccc1	0.318
C=C(COC)C(=O)CC[C@@H](OC(=O)c1cccnc1)c1ccc(OCCO)cc1	7.63
CCCNC(=O)[C@@]1(c2ccc([N+](=O)[O-])cc2)CC(=O)N(C2CCCCC2)[C@@H]1c1ccc(CO)cc1	2.1
CCC(CC)C(O)C1C=CC2C(=O)N(c3ccccc3)C(=O)C2N1Nc1ccc(C(C)C)cc1 (stereo not drawn)	1.46
COC(=O)[C@@]1(Cc2ccc(F)cc2)[C@H]2c3cc(C(=O)N(C)C)n(CCc4ccc(O)c(OC)c4)c3C[C@H]2CN1C(=O)c1ccccc1	-0.951
COc1ccc([Si](C)(C)[C@@H]2[C@@H](CC(=O)N(CCO)Cc3ccccc3)O[C@]3(C(=O)N(Cc4cccc(N5CCOC5=O)c4)c4ccccc43)[C@H]2C)cc1	5.73
COc1ccc(-c2cc3c(c(CCc4ccccc4)n2)[Si](C(C)C)(C(C)C)OC3)cn1	3.8
COCC1=C2[C@@H](CCc3ccccc3)OB(O)C[C@@H]2[C@@H]2C(=O)C=CC(=O)[C@@H]2C1	2.09
Cc1ccc(S[C@]2(C(=O)O)CC(=O)N(Cc3ccccc3Cl)[C@@H]2c2ccc(CO)cc2I)cc1	8.88
COC(=O)[C@H](Cc1ccccc1)N1CC(/C=C/C2CC2)=C[C@H]1[C@H](O)Cc1ccccc1	1.74
O=C1O[C@H](c2ccccc2)[C@H](c2ccccc2)N2[C@H]1[C@@H](C(=O)Nc1nc3ccccc3s1)[C@]1(C(=O)Nc3ccc(C#CCCO)cc31)[C@H]2c1ccc(O)cc1	0.402
COC(=O)CCCCCCC(=O)Nc1ccc(NC(=O)CCCC[P+](c2ccccc2)(c2ccccc2)c2ccccc2)cc1	25.6
C=C(COC)/C(=C/C[C@H](OC(=O)c1ccncc1)c1ccccc1OCCO)c1cnc2ccccc2c1	13
[N-]=[N+]=NCc1ccccc1C[C@@]1(C(=O)NCc2ccccc2)N=C(c2ccc(OCCCO)cc2)O[C@@H]1c1ccccc1N=[N+]=[N-]	32.6
O=C1NC(=O)C2C1C=CC(C(O)c1c(F)cccc1Cl)N2Nc1ccc(Cl)cc1Cl (stereo not drawn)	3.9
COc1ccc([Si](C)(C)[C@@H]2[C@@H](CC(=O)N3Cc4ccccc4C[C@H]3CO)O[C@]3(C(=O)N(C)c4ccccc43)[C@H]2C)cc1	11.8
COC(=O)C1=CC(CCCO)=CC(C2CC2)N(C)C=C1C(=O)OC (stereo not drawn)	0.731
COC(=O)[C@@]1(Cc2ccc(OC)cc2)[C@@H]2C(=CC(=O)[C@H]2CC(=O)C(=O)N(C)C)CN1C(=O)c1ccccc1	2.07
CCCCN1CC=CC23O[C@@H]4/C=C\CCC(C)OC(=O)C4[C@H]2C(=O)N(C(CO)C(C)C)[C@@H]3C1=O (stereo partly drawn)	1.65
O=C(NCc1ccccc1)[C@@H]1c2ccccc2C(=O)N(Cc2ccccc2C(F)(F)F)[C@H]1c1ccc(CO)cc1	3.68
COCCOC(=O)N1C(=O)[C@@]2(c3cc(C#CC4=CCCCC4)ccc31)[C@H](C(N)=O)[C@H]1C(=O)O[C@H](c3ccccc3)[C@H](c3ccccc3)N1[C@@H]2c1ccccc1OCCO	3.63
[N-]=[N+]=Nc1ccccc1C[C@]1(C(=O)N2CCOCC2)N=C(c2ccc(OCCCO)cc2)O[C@H]1c1ccccc1	20.5
COc1ccccc1CN1C(=O)c2ccccc2[C@](Cc2ccccc2I)(C(=O)NCC(F)(F)F)[C@@H]1c1ccc(CO)cc1	5.37
C=CCOC(=O)[C@H]1[C@@H]2C(=O)O[C@@H](c3ccccc3)[C@@H](c3ccccc3)N2[C@@H](c2ccc(OCCOC(=O)[C@@H]3C[C@@H]4C(=O)N5CCC[C@H]5C(=O)N4[C@@H]3c3ccc(O)cc3)cc2)[C@]12C(=O)Nc1ccc(I)cc12	1.81
COCCOC(=O)N1C(=O)[C@@]2(c3cc(C#CC4=CCCCC4)ccc31)[C@H](c1ccc(O)cc1)N1[C@H](c3ccccc3)[C@H](c3ccccc3)OC(=O)[C@H]1[C@@H]2C(=O)N1CCN(c2ncccn2)CC1	-0.0088
CCOC(=O)C[C@H]1[C@H](OC(=O)c2cc3ccccc3oc2=O)[C@@H](NC(=O)Cc2ccc(OC)cc2)c2cc(OCCCO)ccc2N1C(=O)c1ccc2ccccc2n1	9.52
